Biological target: human Y5 receptor (Homo sapiens)
Construct: expressed in transfected cells; host or cells: mouse fibroblast LM(tk-) cells, e.g. L-hY5-7 (ATCC CRL-11995)
Sequence (Q15761 1-445): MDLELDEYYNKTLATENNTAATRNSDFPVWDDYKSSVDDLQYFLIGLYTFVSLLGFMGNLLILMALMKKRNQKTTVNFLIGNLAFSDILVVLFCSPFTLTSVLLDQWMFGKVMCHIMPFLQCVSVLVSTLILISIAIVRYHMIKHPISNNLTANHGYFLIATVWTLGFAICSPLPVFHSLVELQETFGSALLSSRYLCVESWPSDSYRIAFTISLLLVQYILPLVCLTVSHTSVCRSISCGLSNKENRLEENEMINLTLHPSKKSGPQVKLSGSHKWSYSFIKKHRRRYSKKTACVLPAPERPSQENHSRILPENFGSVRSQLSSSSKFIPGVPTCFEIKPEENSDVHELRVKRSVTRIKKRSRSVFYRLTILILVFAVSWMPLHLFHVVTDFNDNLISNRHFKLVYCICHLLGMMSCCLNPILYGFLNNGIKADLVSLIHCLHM
Assay: Radioligand binding to membranes, cloned human Y5 receptor
Details: Table 6; read-out: Ki, nM hNPY-5
experimental endpoint: log10 Ki (log10 of the value in nM)

- input smiles: "CC(C)N(C=O)[C@H]1CC[C@H](CNc2nc3c(s2)CCSc2ccc(F)cc2-3)CC1"
  log10 Ki: 0.78
- input smiles: "CN(C)c1cccc2c(S(=O)(=O)NCCCCCNc3nc4c(s3)CCSc3ccccc3-4)cccc12"
  log10 Ki: 2.21
- input smiles: "O=S(=O)(NCCCCNc1nc2c(s1)CCSc1ccccc1-2)c1ccc(F)cc1F"
  log10 Ki: 2.08
- input smiles: "CN(C)C(=O)NCCCCCNc1nc2c(s1)CCSc1ccccc1-2"
  log10 Ki: 2.09
- input smiles: "CN(C)c1cccc2c(S(=O)(=O)NC[C@H]3CC[C@H](Nc4nc5c(s4)CCSc4ccccc4-5)CC3)cccc12"
  log10 Ki: 1.43
- input smiles: "O=S(=O)(NCCCCCCNc1nc2c(s1)CCSc1ccccc1-2)c1cccc2ccccc12"
  log10 Ki: 1.22

====

Measured melting point of individual entries
Where a name gives a salt, the structure may show the parent alone.
experimental endpoint: melting point

- molecule: "COc1ccc(S(=O)(=O)NCCCCCNc2nc(-c3ccccn3)cs2)cc1 (as salt: chloride) [Example 62]"
  reported result: "54 to 57 °C"
- molecule: "O=S(=O)(N[C@H]1CC[C@H](CNc2nc(-c3cccnc3)cs2)CC1)c1ccccc1F (as salt: chloride) [Example 86]"
  reported result: "141 to 142 °C"
- molecule: "Cc1noc(C)c1S(=O)(=O)NCCCCCNc1nc(-c2ccncc2)cs1 (as salt: chloride) [Example 74]"
  reported result: "108 to 109 °C"
- molecule: "CCS(=O)(=O)NCCCCCNc1nc(-c2ccccn2)cs1 (as salt: chloride) [Example 67]"
  reported result: "49 to 51 °C"
- molecule: "O=S(=O)(Cc1ccccc1)NCCCCCNc1nc(-c2ccccn2)cs1 (as salt: chloride) [Example 66]"
  reported result: "62 to 64 °C"
- molecule: "COc1ccc(C)cc1S(=O)(=O)NCCCCCNc1nc(-c2ccccn2)cs1 (as salt: chloride) [Example 65]"
  reported result: "155 to 156 °C"
- molecule: "O=S(=O)(NCCCCCNc1nc(-c2ccccn2)cs1)C(F)(F)F (as salt: chloride) [Example 68]"
  reported result: "63 to 65 °C"
- molecule: "O=S(=O)(NCCCCCNc1nc(-c2ccccn2)cs1)c1cccs1 (as salt: chloride) [Example 60]"
  reported result: "75 to 77 °C"
- molecule: "COc1ccc(C)cc1S(=O)(=O)NCCCCCNc1nc(-c2ccncc2)cs1 (as salt: chloride) [Example 75]"
  reported result: "116 to 117 °C"
- molecule: "COc1ccc(C)cc1S(=O)(=O)N[C@H]1CC[C@H](CNc2nc(-c3ccccn3)cs2)CC1 (as salt: chloride) [Example 83]"
  reported result: "111 to 113 °C"
- molecule: "COc1ccc(C)cc1S(=O)(=O)NCCCCCNc1nc(-c2cccnc2)cs1 (as salt: chloride) [Example 72]"
  reported result: "119 to 120 °C"
